Catalogue of pKd values
# tgt: T1, human TGFbR1 ECD-133-myc(His)6 (human)
# T1 chain: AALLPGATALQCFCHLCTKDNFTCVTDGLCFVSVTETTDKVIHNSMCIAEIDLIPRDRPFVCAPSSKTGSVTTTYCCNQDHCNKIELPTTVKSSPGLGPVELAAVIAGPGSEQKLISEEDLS
# assayName: BLI
Please express pKd as -log10 of the molar concentration.

As a guide, the following entries are already answered.
binder: YU772-G04_VH-YU771-A09-VL (antibody, V domains shown) VH: EVQLLESGGGLVQPGGSLRLSCAASGFPFSSYAMSWVRQAPGKGLEWVSAISGSGGTTYYADSVKGRFTISRDNSKNTLYLQMNSLRAEDTAVYYCARVAGYVHRGFYGGGMDYWGQGTLVTVSS VL: DIQMTQSPSSLSASVGDRVTITCRASQSIYSHLNWYQQKPGKAPKLLIYAASTLQSGVPSRFSGSGSGTDFTLTISSLQPEDFATYYCQQAYGPLTFGQGTKLEIK
pKd: 8.06
--
binder: YU772-D10 (antibody, V domains shown) VH: EVQLLESGGGLVQPGGSLRLSCAASGFTFSSYPMSWVRQAPGKGLEWVSAISGYGGSTYYADSVKGRFTISRDNSKNTLYLQMNSLRAEDTAVYYCARVVGYVYDGSYGGGMDYWGQGTLVTVSS VL: DIQMTQSPSSLSASVGDRVTITCRASQSISSYLNWYQQKPGKAPKLLIYAASSLQSGVPSRFSGSGSGTDFTLTISSLQPEDFATYYCQQGYGPLTFGQGTKLEIK
pKd: 8.11

Now examine the next entry.
Could you tell me which pKd is on file for YU772-D10_VH-YU772-C01_VL (antibody, V domains shown) VH: EVQLLESGGGLVQPGGSLRLSCAASGFTFSSYPMSWVRQAPGKGLEWVSAISGYGGSTYYADSVKGRFTISRDNSKNTLYLQMNSLRAEDTAVYYCARVVGYVYDGSYGGGMDYWGQGTLVTVSS VL: DIQMTQSPSSLSASVGDRVTITCRASQSIWSYLNWYQQKPGKAPKLLIYAASSLQSGVPSRFSGSGSGTDFTLTISSLQPEDFATYYCQQGYGPLTFGQGTKLEIK ?
8.14
